src = paper PMC7076710

# System Under Test: GATA4–NKX2-5 transcriptional synergy (Mus musculus, UniProt P42582+Q08369)
# Construct: expressed in transfected cells; host or cells: COS-1
# Sequence (Q08369 whole entry): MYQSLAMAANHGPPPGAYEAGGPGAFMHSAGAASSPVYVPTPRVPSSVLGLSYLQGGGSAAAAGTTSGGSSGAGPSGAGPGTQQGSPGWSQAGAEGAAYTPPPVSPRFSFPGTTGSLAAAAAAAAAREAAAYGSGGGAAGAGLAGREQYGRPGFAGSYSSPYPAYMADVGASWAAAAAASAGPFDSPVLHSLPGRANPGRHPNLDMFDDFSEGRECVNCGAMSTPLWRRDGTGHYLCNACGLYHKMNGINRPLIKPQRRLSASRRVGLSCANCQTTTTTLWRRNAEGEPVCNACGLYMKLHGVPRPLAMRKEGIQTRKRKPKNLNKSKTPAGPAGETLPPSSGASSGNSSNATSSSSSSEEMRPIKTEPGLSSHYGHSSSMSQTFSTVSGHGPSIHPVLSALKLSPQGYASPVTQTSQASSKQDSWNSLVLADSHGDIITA
# Sequence (P42582 whole entry): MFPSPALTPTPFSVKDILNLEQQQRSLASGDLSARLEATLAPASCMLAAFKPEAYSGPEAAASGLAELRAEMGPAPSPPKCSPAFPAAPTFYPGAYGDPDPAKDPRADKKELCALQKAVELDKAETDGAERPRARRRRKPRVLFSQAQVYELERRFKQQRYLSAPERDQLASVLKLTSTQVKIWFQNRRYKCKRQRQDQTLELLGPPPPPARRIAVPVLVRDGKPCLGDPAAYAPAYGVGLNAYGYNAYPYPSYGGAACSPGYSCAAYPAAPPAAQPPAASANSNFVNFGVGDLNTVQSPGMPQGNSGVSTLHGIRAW
# Assay Comment: GATA4–NKX2-5 transcriptional synergy luciferase reporter assay (3xNKE reporter, COS-1 cells)
# Assay type: cell-based
# Run Conditions: COS-1; compound at 3 µM; luciferase reporter activity, % of control
Recorded activity at 3 µM for the following compounds
Measure: activity at 3 µM (%)

molecular_string=CCN(CC)c1ccc(NC(=S)c2c(-c3ccccc3)noc2C)cc1 system_under_test="GATA4–NKX2-5 transcriptional synergy (Mus musculus, UniProt P42582+Q08369)" unit_of_measurement=% meas_value=90.6
molecular_string=COc1ccc(-c2cc(N=Cc3ccc(N(C)C)cc3)n[nH]2)cc1 system_under_test="GATA4–NKX2-5 transcriptional synergy (Mus musculus, UniProt P42582+Q08369)" unit_of_measurement=% meas_value=94.2
molecular_string=Fc1ccc(-c2n[nH]cc2C=Nc2ccc(N3CCOCC3)cc2)cc1 system_under_test="GATA4–NKX2-5 transcriptional synergy (Mus musculus, UniProt P42582+Q08369)" unit_of_measurement=% meas_value=103
molecular_string=CCN(CC)c1ccc(C(=O)Nc2c(C(N)=O)oc3ccccc23)cc1 system_under_test="GATA4–NKX2-5 transcriptional synergy (Mus musculus, UniProt P42582+Q08369)" unit_of_measurement=% meas_value=94.1
molecular_string=Cc1onc(-c2ccccc2)c1C(=O)N(N)S(=O)(=O)c1ccccc1 system_under_test="GATA4–NKX2-5 transcriptional synergy (Mus musculus, UniProt P42582+Q08369)" unit_of_measurement=% meas_value=106

###

Listing of entries alongside the reported activity at 3 µM.
# System Under Test: NKX2-5 transcriptional activity (Mus musculus)
# Construct: expressed in transfected cells; host or cells: COS-1
# Assay Comment: NKX2-5 luciferase reporter assay (3xNKE reporter, COS-1 cells)
# Assay type: cell-based
# Run Conditions: 3 µM compound; NKX2-5 luciferase reporter, COS-1 cells; read-out: NKX.3µM
# Experimental: To screen compounds for the GATA4–NKX2-5 interaction, we have developed a luciferase reporter assay based on their property to activate gene transcription synergistically through the NKX2-5 binding site on DNA.[28] […] Raw luciferase data were analyzed in Excel, and clear outliers were removed from triplicates by using the Grubb’s test. […] Statistical significance of luciferase reporter assay data was evaluated by randomized block analysis of variance followed by Dunnett’s post hoc test. […]
Measure: activity at 3 µM (%)

molecule=CCN(c1ccc(NC(=O)c2c(C)noc2-c2cc(C)on2)cc1)C(C)C meas_value=85.2
molecule=CCN(CC)c1ccc(NC(=O)c2c(-n3cccc3)sc(C)c2C)cc1 meas_value=102
molecule="Cc1onc(-c2ccccc2)c1COc1ccc(C(=O)OCCCC#N)cc1 [Compound 35b]" meas_value=82.5
molecule="CCN(CC)c1ccc(NC(=O)c2c(-c3ccoc3)noc2C)cc1 [Compound 39n]" meas_value=122
molecule=CCN(CC)c1ccc(-n2c(=O)c3c(C)onc3c3ccccc32)cc1 meas_value=105
molecule="CCc1noc(C)c1C(=O)Nc1ccc(N(CC)CC)cc1 [Compound 39b]" meas_value=124

###

# System Under Test: GATA4–NKX2-5 transcriptional synergy (Mus musculus, UniProt P42582+Q08369)
# Construct: expressed in transfected cells; host or cells: COS-1
# Assay Comment: GATA4–NKX2-5 transcriptional synergy luciferase reporter assay (3xNKE reporter, COS-1 cells)
# Format: cell-based
# Run Conditions: COS-1; compound at 3 µM; luciferase reporter activity, % of control
Listed next: entries and their corresponding activity at 3 µM.
Measure: activity at 3 µM (%)

compound="CCN(CC)c1ccc(NC(=O)c2c(-c3ccccc3Cl)noc2C)cc1 [Compound 39k]" measure="activity at 3 µM" unit_of_measurement=% meas_value=107
compound=CN(C)c1ccc(/C=N/c2c(-c3ccccc3)nc3ncccn23)cc1 measure="activity at 3 µM" unit_of_measurement=% meas_value=98.9
compound=Cc1onc(-c2ccccc2)c1C(=O)Nc1nc2ccccc2n1C measure="activity at 3 µM" unit_of_measurement=% meas_value=83.5
compound=Cc1cc(NC(=O)c2c(-c3ccccc3)noc2C)ncc1[N+](=O)[O-] measure="activity at 3 µM" unit_of_measurement=% meas_value=116
compound=COc1ccc(-c2cc(N)nn2C(=O)c2ccc(C(C)(C)C)cc2)cc1 measure="activity at 3 µM" unit_of_measurement=% meas_value=104
compound=CCN(CCO)c1ccc(N(C)C(=O)c2c(-c3ccccc3)noc2C)cc1 measure="activity at 3 µM" unit_of_measurement=% meas_value=87
compound="CC[N+](C)(c1ccc(NC(=O)c2c(-c3ccccc3)noc2C)cc1)C(C)C (stereo not drawn)" measure="activity at 3 µM" unit_of_measurement=% meas_value=88.4
compound=CN(C)c1ccc(C=Nc2cc(-c3ccccc3)nn2-c2ccccc2)cc1 measure="activity at 3 µM" unit_of_measurement=% meas_value=93.3
compound=Cc1onc(-c2cccc([N+](=O)[O-])c2)c1C(=O)Nc1ccc(N(C)C)cc1 measure="activity at 3 µM" unit_of_measurement=% meas_value=95
compound="CCN(CC)c1ccc(NC(=O)c2c(-c3c(Cl)cccc3Cl)noc2C)cc1 [Compound 39e]" measure="activity at 3 µM" unit_of_measurement=% meas_value=88.9
compound="CCN(CC)c1ccc(NC(=O)c2c(-c3ccccc3[N+](=O)[O-])noc2C)cc1 [Compound 39h]" measure="activity at 3 µM" unit_of_measurement=% meas_value=89.5
compound=Cc1onc(-c2ccccc2)c1C(=O)Nc1cnc2ccccc2c1 measure="activity at 3 µM" unit_of_measurement=% meas_value=108
compound="CCN(CC)c1ccc(NC(=O)c2c(-c3c(Cl)ccc([N+](=O)[O-])c3Cl)noc2C)cc1 [Compound 39f]" measure="activity at 3 µM" unit_of_measurement=% meas_value=76.3
compound=Cc1cc(NC(=O)c2c(-c3cccc([N+](=O)[O-])c3)noc2C)ccc1C(C)C measure="activity at 3 µM" unit_of_measurement=% meas_value=93.1
compound=Cc1onc(-c2ccccc2)c1C(=O)Nc1ccc(C(=O)Nc2ccccc2)cc1 measure="activity at 3 µM" unit_of_measurement=% meas_value=80.1

###

# System Under Test: GATA4 transcriptional activity (Mus musculus, UniProt Q08369)
# Construct: expressed in transfected cells; host or cells: COS-1
# Sequence (Q08369 whole entry): as the sequence (Q08369 whole entry) above
# Assay Comment: GATA4 luciferase reporter assay (tandem GATA-site reporter, COS-1 cells)
# Assay type: cell-based
# Run Conditions: 3 µM compound; GATA4 luciferase reporter, COS-1 cells
Measure: activity at 3 µM (%)

compound="CCc1noc(C)c1C(=O)Nc1ccc(N(CC)CC)cc1 [Compound 39b]" unit_of_measurement=% meas_value=120
compound=CCN(c1ccc(NC(=O)c2c(C)noc2-c2cc(C)on2)cc1)C(C)C unit_of_measurement=% meas_value=103
compound="Cc1onc(-c2ccccc2)c1COc1ccc(C(=O)OCCCC#N)cc1 [Compound 35b]" unit_of_measurement=% meas_value=73.9
compound=CCN(CC)c1ccc(-n2c(=O)c3c(C)onc3c3ccccc32)cc1 unit_of_measurement=% meas_value=101
compound="CCN(CC)c1ccc(NC(=O)c2c(-c3ccoc3)noc2C)cc1 [Compound 39n]" unit_of_measurement=% meas_value=108
compound=Cc1cc(-c2onc(C)c2C(=O)Nc2ccc3oc(-c4ccccc4)cc(=O)c3c2)no1 unit_of_measurement=% meas_value=127

###

# System Under Test: GATA4–NKX2-5 transcriptional synergy (Mus musculus, UniProt P42582+Q08369)
# Construct: expressed in transfected cells; host or cells: COS-1
# Assay Comment: GATA4–NKX2-5 transcriptional synergy luciferase reporter assay (3xNKE reporter, COS-1 cells)
# Type: cell-based
# Run Conditions: COS-1; compound 3 µM; luciferase reporter activity relative to control
The following compounds are shown together with reported activity at 3 µM values.
Measure: activity at 3 µM (%)

compound="CC(=O)c1ccc(OCc2cc(-c3ccc(CC(C)C)cc3)on2)cc1 [SI107]" measure="activity at 3 µM" meas_value=113
compound="CCN(CC)c1ccc(NCc2ccncc2)cc1 [SI41]" measure="activity at 3 µM" meas_value=110
compound="COC(=O)c1c(-c2ccccc2)nnn1CC1CCCO1 (centres unmarked) [SI61]" measure="activity at 3 µM" meas_value=101
compound="CCN(CC)c1ccc(NC(=O)c2c(-c3ccccc3)nnc3ccccc23)cc1 [Compound 47j]" measure="activity at 3 µM" meas_value=113
compound="CCCCCc1ccc(C(=S)Nc2c(-c3ccccc3)noc2C)cc1 [SI35]" measure="activity at 3 µM" meas_value=89.2

###

Reported activity at 10 µM is given for each of the following compounds.
# System Under Test: NKX2-5 transcriptional activity (Mus musculus, UniProt P42582)
# Construct: expressed in transfected cells; host or cells: COS-1
# Sequence (P42582 whole entry): as the sequence (P42582 whole entry) above
# Assay Comment: NKX2-5 luciferase reporter assay (3xNKE reporter, COS-1 cells)
# Format: cell-based
# Run Conditions: 10 µM compound; NKX2-5 luciferase reporter, COS-1 cells; read-out: NKX.10µM
Measure: activity at 10 µM (%)

compound="CCN(c1ccc(NC(=O)c2c(C)noc2-c2cc(C)on2)cc1)C(C)C [Compound 74]" unit_of_measurement=% meas_value=88.8
compound="CCc1noc(C)c1C(=O)Nc1ccc(N(CC)CC)cc1 [Compound 39b]" unit_of_measurement=% meas_value=164
compound="CCN(CC)c1ccc(-n2c(=O)c3c(C)onc3c3ccccc32)cc1 [Compound 78]" unit_of_measurement=% meas_value=112
compound="CCN(CC)c1ccc(NC(=O)c2c(-c3ccoc3)noc2C)cc1 [Compound 39n]" unit_of_measurement=% meas_value=106
